# target desc: Human glucagon receptor (human, UniProt P47871 26-477)
# experiment description: cell-based or functional assay
Where no end group is shown, it is not given here. [ ]: non-standard residue; d: D form. αMePhe(2-F) = C[C@](N)(Cc1ccccc1F)C(=O)O; Ac3c = NC1(C(=O)O)CC1
Catalogue of binders with associated cAMP production with saturated glucagon peptide; test compound '1 nM'
The reply should consist of the numeric value with the unit placed after it.

Below: 6 binders and their reported cAMP production with saturated glucagon peptide; test compound '1 nM'.
[[record]]
binder = "HAQGTFTSD[Bip(OMe)][Bip(2Me)] (not fully specified (C-terminus); printed as HAQGTFTSD-Bip(OMe)-Bip(2Me)) [Seq. ID. No. 9: HAQGTFTSD-Bip(OMe)-Bip(2Me)]"
measured = "8 pmol/ml/µg prt"

[[record]]
binder = "HAQGT[αMePhe(2-F)]TSD[Bip(OMe)][Bip(2Me)] [Seq. ID. No. 25: HAQGT-(α-Me-2F-Phe)-TSD-Bip(OMe)-Bip(2Me)]"
measured = "8 pmol/ml/µg prt"

[[record]]
binder = "HSQGTXTSDXX (α-Me-2F-Phe at 6; Bip(OMe) at 10; Bip(Pyr) at 11) [Seq. ID. No. 22: HSQGT-(α-Me-2F-Phe)-TSD-Bip(OMe)-Bip(Pyr)]"
measured = "18 pmol/ml/µg prt"

[[record]]
binder = "H[Ac3c]QGTFTSD[Bip(OMe)][Bip(Pyr)] [Seq. ID. No. 18: H-(ACP)-QGTFTSD-Bip(OMe)-Bip(Pyr)]"
measured = "0 pmol/ml/µg prt"

[[record]]
binder = "HSQGTFTSD[Bip(OMe)][Bip(2Me)]-NH2 [Seq. ID. No. 5: HSQGTFTSD-Bip(OMe)-Bip(2Me)]"
measured = "14 pmol/ml/µg prt"

[[record]]
binder = "HXQGTXTSDXX (Aib at 2; α-Me-2F-Phe at 6; Bip(OMe) at 10; Bip(Pyr) at 11) [Seq. ID. No. 30: H-Aib-QGT-(α-Me-2F-Phe)-TSD-Bip(OMe)-Bip(Pyr)]"
measured = "3 pmol/ml/µg prt"


Switching to the query record.
Qu. What does the data say about its cAMP production with saturated glucagon peptide; test compound '1 nM'? Entry: HXQGTXTSDXX (not fully specified; ACP at 2; α-Me-2F-Phe at 6; Bip(OMe) at 10; Bip(Pyr) at 11) [Seq. ID. No. 34: H-(ACP)-QGT-(α-Me-2F-Phe)-TSD-Bip(OMe)-Bip(Pyr)]
Ans. 0 pmol/ml/µg prt
